Hello, the source for this data is patent US20040018198A1, in case you need it.

# target.entity: CA IX catalytic domain protein (CA9-CD) (human, UniProt Q16790 138-391)
# experimental.details: ELISA on CA9-CD (catalytic domain)
# maps each entry to its OD

| binder | OD |
| --- | --- |
| AB-MN-22.19 (antibody, human IgG2, V domains shown, also called AX014H22-19) VH: QVQLQESGPGLVKPSETLSLTCTVSGGSISFYYWNWIRQPAGKGLEWVGRIYTSGSTNYNPSLKSRVTMSVDTSKNQFSLKLSSVTAADTAVYYCARGGFLEWDYYYGMDVWGQGTTVTVSS VL: EIVLTQSPGTLSLSPGERATLSCRASQSVSVTYLAWYQQKPGQAPRLLIYGASSRATGIPDRFSGSGSGTDFTLTISRLEPEDFAVYYCQQYGSSVTFGGGTKVEIK | 3.01 OD |
| AB-MN-22.28.1 (antibody, human IgG2, V domains shown, the numbering there is inconsistent; also called AX014H22-28-1) VH: QVQLEQSGGGLVQPGGSLRLSCAASGFTFSSYAMSWVRQAPGKGLEWVSAISGSGGGTYYADSVKGRFTISRDNSKNTLYLQMNSLRAEDTAVYYCASGRYYYYYDMDVWGQGTTVTVSS VL: DIRLTQSPSSLSASVGDRVTITCRASQGIRNDLGWYQQKPGKAPKRLIYAASSLQSGVPSRFSGSGSGTEFTLTISSLQPEDFATYYCLQHNSYPLTFGGGTKVEIK | 2.54 OD |
| AB-MN-XG1-051 (antibody, human IgG1, V domains shown, also called MN51; AB-MN-XG1-51) VH: EVQLVEFGGGLVKPGGSLRLSCAASGFTFSSFRMNWVRQAPGEGLEWVSSITSSSSYIYYADSVKGRFTISRDNAKNSLYLQMNSLRAEDTAVYYCARFTAMALDYWGQGTLVTVSS VL: DIQMTQSPSSLSASVGDRVTITCRASQGIFNYLAWYQQKPGKVPKLLIYAASTLQSGVPSRFSGSGSGTDFTLTISSLQPEDVAVYYCLKYNSAPWTFGQGTKVEIK | 2.88 OD |
